# Test system: HT-29
# Measurement Notes: NCI tumour cell line growth inhibition, 48 h
The source made the active and inactive calls. Rule as the data show it: active = GI50 up to about 1.1 µM and inactive = higher.
Readout Label: GI50

Molecule	Subject Of Test	Result
C=C1C(O)CC[C@]2(C)C1C1OC(C)(C)O[C@]13CC(=O)C(C)=C([C@H]1OC(C)(C)OC12)C3(C)C (some centres not stated)	HT-29	> 100 µM (inactive)
[O-][N+]1(CC[N+]2([O-])CCCCC2)CCCCC1	HT-29	> 100 µM (inactive)
Cc1ccccc1-n1c(=O)c2ncn(CCCl)c2n(-c2ccccc2C)c1=S	HT-29	> 100 µM (inactive)
N#CCCN(c1ccc(/C=C2\N=C(Cc3ccccc3)OC2=O)cc1)S(=O)(=O)c1ccccc1	HT-29	> 100 µM (inactive)
CCCCCCCCCCCCCCCCCCNc1ccn(C2OC(COP(=O)(O)OCC3OC(n4cc(C)c(=O)[nH]c4=O)CC3O)C(O)C2O)c(=O)n1 (configuration not stated)	HT-29	16.7 µM (inactive)
CC(C)(C)OC(=O)NC1CCCC1C(O)(C1=CCCC1)C1=CCCC1 (configuration not stated)	HT-29	76.2 µM (inactive)
CCCCCCCCCCCCCCCC[N+](C)(C)Cc1ccc(F)cc1	HT-29	1.26 µM (inactive)
CNC(=O)OCc1nc(SC)n(C)c1COC(=O)NC	HT-29	205 µM (inactive)
Cc1ccc(/N=N/C(=N\c2ccc(Cl)cc2)c2ccc(N(CCC#N)CCC#N)cc2)cc1	HT-29	71.4 µM (inactive)
O=C(/C=C/c1ccc(Cl)cc1)c1cccs1	HT-29	16.5 µM (inactive)
COC(=O)c1csc([C@@H](OC(=O)[C@H](C)[C@H](CCCC(C)(Cl)Cl)OC(=O)c2csc([C@H](O)CO)n2)C(C)C)n1	HT-29	17.6 µM (inactive)
O=P(Nc1cccc(Cl)c1)(Oc1ccccc1)N(CCCl)CCCl (configuration not stated)	HT-29	14.8 µM (inactive)
